Where these numbers come from: patent US20240084042A1

Some binders, each annotated with its measured koff.
# Target: T1, cynomolgus monkey KLK5 (cynomolgus monkey, UniProt Q9Y337 67-293 (human entry))
# T1 construct: also called cyno KLK5
# T1 chain: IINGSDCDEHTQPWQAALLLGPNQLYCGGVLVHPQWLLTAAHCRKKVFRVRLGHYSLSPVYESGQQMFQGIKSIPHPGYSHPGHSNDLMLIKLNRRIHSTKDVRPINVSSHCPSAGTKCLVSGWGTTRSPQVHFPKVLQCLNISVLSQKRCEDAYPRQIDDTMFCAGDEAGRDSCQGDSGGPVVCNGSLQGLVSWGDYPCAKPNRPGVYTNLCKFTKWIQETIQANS
# Test: SPR, one-armed monovalent antibody
The reply should contain only the number, in s⁻¹.

Guide cases for koff, answers given:
OA.hu.9H5.H14L4.G54A.S95Y (antibody, V domains shown, One-armed (OA) monovalent anti-KLK5 antibody with a human IgG1 Fc, with Q38E/Q39K; constant regions and dummy Fc chain not specified) VH: EVQLVESGGGLIQPGGSLRLSCAASGFSLSSYGVSWVRKAPGKGLEYVGFIGSAGFAYYASWAKSRFTISRDNSKNTLYLQMNSLRAEDTAVYYCARDDVGGGKSLDIWGQGTLVTVSS VL: DIQMTQSPSSLSASVGDRVTITCQASQSISSYLSWYQEKPGKAPKLLIYSASTLASGVPSRFSGSGSGTDFTLTISSLQPEDFATYYCHQDYTSYNVDNTFGGGTKVEIK : 8.44e-05
OA.hu.9H5.H14L4.G54A.G98Q.H89V.S95Y (antibody, V domains shown, One-armed (OA) monovalent anti-KLK5 antibody with a human IgG1 Fc, with Q38E/Q39K; constant regions and dummy Fc chain not specified) VH: EVQLVESGGGLIQPGGSLRLSCAASGFSLSSYGVSWVRKAPGKGLEYVGFIGSAGFAYYASWAKSRFTISRDNSKNTLYLQMNSLRAEDTAVYYCARDDVQGGKSLDIWGQGTLVTVSS VL: DIQMTQSPSSLSASVGDRVTITCQASQSISSYLSWYQEKPGKAPKLLIYSASTLASGVPSRFSGSGSGTDFTLTISSLQPEDFATYYCVQDYTSYNVDNTFGGGTKVEIK : 5.75e-05
OA.hu.9H5.H14L4.G98Q.H89V (antibody, V domains shown, One-armed (OA) monovalent anti-KLK5 antibody with a human IgG1 Fc, with Q38E/Q39K; constant regions and dummy Fc chain not specified) VH: EVQLVESGGGLIQPGGSLRLSCAASGFSLSSYGVSWVRKAPGKGLEYVGFIGSGGFAYYASWAKSRFTISRDNSKNTLYLQMNSLRAEDTAVYYCARDDVQGGKSLDIWGQGTLVTVSS VL: DIQMTQSPSSLSASVGDRVTITCQASQSISSYLSWYQEKPGKAPKLLIYSASTLASGVPSRFSGSGSGTDFTLTISSLQPEDFATYYCVQDYTSSNVDNTFGGGTKVEIK : 0.000145
OA.hu.9H5.H14L4.G98Q.H89V.S95Y (antibody, V domains shown, One-armed (OA) monovalent anti-KLK5 antibody with a human IgG1 Fc, with Q38E/Q39K; constant regions and dummy Fc chain not specified) VH: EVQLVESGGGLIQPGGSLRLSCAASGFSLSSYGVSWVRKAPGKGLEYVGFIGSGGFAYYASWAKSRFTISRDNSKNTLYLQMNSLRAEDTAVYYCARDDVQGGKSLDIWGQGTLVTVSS VL: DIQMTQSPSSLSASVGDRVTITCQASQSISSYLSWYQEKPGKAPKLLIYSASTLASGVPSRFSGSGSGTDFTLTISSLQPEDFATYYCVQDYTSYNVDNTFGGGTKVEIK : 0.000133

Give the measured koff for OA.hu.9H5.H14L4.G98Q.S95Y (antibody, V domains shown, One-armed (OA) monovalent anti-KLK5 antibody with a human IgG1 Fc, with Q38E/Q39K; constant regions and dummy Fc chain not specified) VH: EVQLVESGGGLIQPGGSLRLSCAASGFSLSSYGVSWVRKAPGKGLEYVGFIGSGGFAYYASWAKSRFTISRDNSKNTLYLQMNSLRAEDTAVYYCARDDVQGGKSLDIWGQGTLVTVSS VL: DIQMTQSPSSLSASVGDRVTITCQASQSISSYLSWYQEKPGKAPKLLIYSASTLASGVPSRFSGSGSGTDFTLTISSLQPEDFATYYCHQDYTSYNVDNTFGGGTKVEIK
0.000145
